Tested on: L1210 leukemia ip in BDF1 mice, survival T/C
PROCEDURE_TEXT: NCI In Vivo Anticancer Drug Screen. Data for tumor model L1210 Leukemia (intraperitoneal) in B6D2F1 (BDF1) mice
STUDY_CONDITIONS: endpoint: mean survival time; dose: 50.0 mg/kg/injection; schedule: Q01DX001 (ip); vehicle: carboxymethylcellulose (CMC); higher = longer survival
Inconclusive results and toxic doses are left out.
Reported T/C values are given for each entry in this list.

Some entries whose results are on file:
{"COMPOUND": "N#CC1(Nc2ccc(-c3ccc(NC4(C#N)CCCC4)cc3)cc2)CCCC1", "T/C": "90 % of control"}
{"COMPOUND": "O=NN(CCBr)C(=O)NCCBr", "T/C": "114 % of control"}
{"COMPOUND": "O=[N+]([O-])c1ccc(O)c(/C=N\\NC(=S)Nc2ccc3cn[nH]c3c2)c1", "T/C": "97 % of control"}
{"COMPOUND": "Cn1c2ccc3c(c2c(=O)c2ccoc21)C=CC(C)(C)O3", "T/C": "98 % of control"}
{"COMPOUND": "CC(=O)C(C(C)=O)C(C)=O.CC(=O)C(C(C)=O)C(C)=O.CC(=O)C(C(C)=O)C(C)=O.[Cr]", "T/C": "100 % of control"}

Requested read-out: T/C. Entry: "O=NN(CCI)C(=O)NCCI"
96 % of control

Requested read-out: T/C. Entry: CC12CC3CC1C2C3OC=O (stereo not given)
90 % of control

Requested read-out: T/C. Entry: "C/C=C/C=C/C(=O)N(C)c1ccccc1"
111 % of control

---

Tested on: L1210 leukemia ip in BDF1 mice, survival T/C
PROCEDURE_TEXT: NCI In Vivo Anticancer Drug Screen. Data for tumor model L1210 Leukemia (intraperitoneal) in B6D2F1 (BDF1) mice
STUDY_CONDITIONS: endpoint: mean survival time; dose: 200.0 mg/kg/injection; schedule: Q01DX001 (ip); vehicle: saline; higher = longer survival
Inconclusive results and toxic doses are left out.
PARAMETER: T/C

{"COMPOUND": "NNC(=O)c1ccccc1NCCO", "TESTED_SYSTEM": "L1210 leukemia ip in BDF1 mice, survival T/C", "T/C": "97 % of control"}

Requested read-out: T/C. Entry: "CC(=O)c1cccc([N+](=O)[O-])c1O"
94 % of control

---

System: L1210 leukemia ip in BDF1 mice, survival T/C
PROCEDURE_TEXT: NCI In Vivo Anticancer Drug Screen. Data for tumor model L1210 Leukemia (intraperitoneal) in B6D2F1 (BDF1) mice
STUDY_CONDITIONS: endpoint: mean survival time; dose: 400.0 mg/kg/injection; schedule: Q01DX001 (ip); vehicle: other; higher = longer survival
Inconclusive results and toxic doses are left out.
PARAMETER: T/C

Some entries whose results are on file:
{"COMPOUND": "CC(=O)OCC1OC(C(N)=O)C(OC(C)=O)C1OC(C)=O (stereo unspecified)", "MEASURED_VALUE": "98 % of control"}
{"COMPOUND": "NC(=O)Nc1cccc(C(=O)O)c1C(=O)O", "MEASURED_VALUE": "107 % of control"}
{"COMPOUND": "CCS(=O)(=O)c1ccc(NC(=O)OC2CCCCCC2)cc1", "MEASURED_VALUE": "93 % of control"}
{"COMPOUND": "COc1ccc(C(=O)Nc2cc(Cl)ccc2OC)cc1", "MEASURED_VALUE": "97 % of control"}
{"COMPOUND": "Cc1ccc(S(=O)(=O)Oc2c(Cl)c(Cl)c(Cl)c(Cl)c2Cl)cc1", "MEASURED_VALUE": "88 % of control"}

Requested read-out: T/C. Entry: c1ccc2c(OCC3CO3)cccc2c1 (stereo unspecified)
111 % of control

Requested read-out: T/C. Entry: "Cc1cc(N(CCCl)CCCl)ccc1C=Nc1cccnc1"
94 % of control

Requested read-out: T/C. Entry: "C=CCOC(=O)N[C@H](CC(C)C)C(N)=O"
100 % of control

Requested read-out: T/C. Entry: "COc1ccc(/C=C/C=C/C(=O)O)cc1OC"
91 % of control

Requested read-out: T/C. Entry: "O=C1c2cccc3cccc(c23)C(=O)N1O"
106 % of control

Requested read-out: T/C. Entry: CCCCCCCCC1SC1CCCCCCCC(=O)OCC1CS1 (stereo unspecified)
93 % of control
